All figures here come from patent US20220267288A1.

Tested on: H9c2 cells
test: Reduction of intracellular ATP (Mitochondrial ToxGlo) in differentiated H9c2 cells
Type: cell-based
test_settings: Rattus norvegicus; H9c2 cells, 6 h exposure; read-out: decrease in intracellular ATP levels IC50
Provide the reported pIC50 of each item.
Numbers only, as −log10 of the molar value.

[
  {
    "smiles_text": "CCCCc1oc2ccc(NS(C)(=O)=O)cc2c1C(=O)c1ccc(OCCCN(CCCC)CCCC)cc1.Cl",
    "endpoint_result": 5.51
  }
]

Attention now shifts to the item below.
[in] Please provide the recorded pIC50 for Cl.[2H]c1c(NS(C)(=O)=O)c([2H])c2c(C(=O)c3ccc(OCCCN(CCCC)CCCC)cc3)c(CCCC)oc2c1[2H] , tested on H9c2 cells.
[out] 4.38

###

System: H9c2 cells
test: Cytotoxicity (dead-cell protease, Mitochondrial ToxGlo) in differentiated H9c2 cells
Assay type: cell-based
test_settings: 6 h exposure, read-out: cytotoxicity EC50 (bis-AAF-R110 dead-cell protease fluorescence)
endpoint_name: EC50 (µM)
Give bare numbers, in µM.

[in] Can you look up the measured EC50 of CCCCc1oc2ccc(NS(C)(=O)=O)cc2c1C(=O)c1ccc(OCCCN(CCCC)CCCC)cc1.Cl [Dronedarone] for me?
[out] 1.2

###

test: Parallel artificial membrane permeability assay (PAMPA)
Type: in vitro ADME
test_settings: read-out: Effective permeability
Provide the reported Papp of each item.
Answers are plain numbers, in ×10⁻⁶ cm/s.

[
  {
    "molecule": "CCCCc1oc2ccc(NS(C)(=O)=O)cc2c1C(=O)c1ccc(OCCCN(CCCC)CCCC)cc1.Cl [Dronedarone]",
    "endpoint_result": 3.46
  }
]

[in] Can you look up the measured Papp of Cl.[2H]c1c(NS(C)(=O)=O)c([2H])c2c(C(=O)c3ccc(OCCCN(CCCC)CCCC)cc3)c(CCCC)oc2c1[2H] [Poyendarone] for me?
[out] 4.08

###

Provide the reported half-life at 1 μM of each item.
system_name: T1, CYP3A4 (Homo sapiens, UniProt P08684)
T1 construct: purchased BD Gentest (Woburn, Mass.)
test: Metabolic stability (substrate depletion) with CYP3A4
Type: in vitro ADME
test_settings: human, CYP3A4 enzyme, pH 7.4; 1 μM substrate, CYP3A4 10 pmol/mL; read-out: T1/2 by CYP3A4
Answers are plain numbers, in min.

[
  {
    "smiles_text": "Cl.[2H]c1c(NS(C)(=O)=O)c([2H])c2c(C(=O)c3ccc(OCCCN(CCCC)CCCC)cc3)c(CCCC)oc2c1[2H]",
    "endpoint_name": "half-life at 1 μM",
    "readout_units": "min",
    "endpoint_result": 7.55
  }
]

[in] Can you look up the measured half-life at 1 μM of CCCCc1oc2ccc(NS(C)(=O)=O)cc2c1C(=O)c1ccc(OCCCN(CCCC)CCCC)cc1.Cl for me?
[out] 16.7

###

Provide the reported microsomal CLint at 1 μM of each item.
test: Metabolic stability (substrate depletion) with HLM
Format: in vitro ADME, human
test_settings: human, pooled human liver microsomes, pH 7.4; substrate depletion; read-out: Intrinsic clearance, CLint HLM
One number for each entry, in µL/min/mg.

[
  {
    "smiles_text": "Cl.[2H]c1c(NS(C)(=O)=O)c([2H])c2c(C(=O)c3ccc(OCCCN(CCCC)CCCC)cc3)c(CCCC)oc2c1[2H]",
    "microsomal CLint at 1 μM / µL/min/mg": 129
  }
]

Attention now shifts to the item below.
[in] Can you look up the measured microsomal CLint at 1 μM of CCCCc1oc2ccc(NS(C)(=O)=O)cc2c1C(=O)c1ccc(OCCCN(CCCC)CCCC)cc1.Cl for me?
[out] 129
